# target-desc: Rac GTPase-activating protein 1 (Homo sapiens)
# assay-remarks: blockers of MgcRacGAP-driven Rac1 GTP hydrolysis – biochemical, ADP Hunter fluorescence, primary and confirmatory, confirmation (AID 624330);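 also: fluorescence reports GDP produced by GAP-driven GTP hydrolysis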
# conditions-used: MgcRacGAP-stimulated Rac1 GTP hydrolysis, at 30 µM, active compounds read high, GST-tagged Rac1 F28L mutant substrate
The campaign covered roughly 340,000 compounds. About 2,100 (0.62%) were called active. Only a sample is shown. Entries with a potency or affinity are not part of this list.
recorded-endpoint: inhibition (%)
Supply the numeric figure in %, leaving out any unit text.

- structure-smiles-string: "COc1cccc(/C=N/n2c(SC)nnc2-c2ccccc2)c1O"
  inhibition [%]: 22.8
- structure-smiles-string: "Clc1ccc(OCCCN2CCCCC2)c(Br)c1"
  inhibition [%]: 27.6
- structure-smiles-string: "Cc1cc(Br)ccc1OCCN1CCCC1"
  inhibition [%]: 31.4
- structure-smiles-string: "C(=N/n1c2ccccc2c2ccccc21)/c1ccco1"
  inhibition [%]: 14.3
- structure-smiles-string: "O=C(Nc1cccc(NC(=O)c2ccco2)c1)c1ccc2c(c1)OCCO2"
  inhibition [%]: 2.32

INPUT: I have this compound here, `Cc1ccc(CN2CCN(/N=C/c3ccc(C(=O)O)cc3)CC2)cc1` , and I need its recorded inhibition.
OUTPUT: 8.13

INPUT: Name the recorded inhibition for `Cc1cc(Br)ccc1OCCOCCN1CCCC1` .
OUTPUT: 21.4

INPUT: Which value of inhibition has been reported for `S=c1[nH]nc(-c2ccccc2)n1/N=C/C=C/c1ccco1` in the records?
OUTPUT: 30.9

INPUT: Quick one: inhibition for `CC1CCN(CCCOc2ccc(Cl)cc2Br)CC1` ?
OUTPUT: 20.7

INPUT: If you can, please state the reported inhibition value of `Nc1nonc1-n1nnc(C(=O)N/N=C/c2cccc(Cl)c2)c1CN1CCCCCC1` .
OUTPUT: 3.77

INPUT: For `Cc1nnc(C)n1/N=C/c1ccc(C(=O)O)cc1` , what is its reported inhibition?
OUTPUT: 7.46

INPUT: Which inhibition is reported for this compound? `c1ccc(Cc2nc3ccccc3[nH]2)cc1`
OUTPUT: -0.91

----------
# target-desc: Rac GTPase-activating protein 1 (Homo sapiens) (UniProt Q9H0H5)
# Sequence (Q9H0H5 whole entry, looked up): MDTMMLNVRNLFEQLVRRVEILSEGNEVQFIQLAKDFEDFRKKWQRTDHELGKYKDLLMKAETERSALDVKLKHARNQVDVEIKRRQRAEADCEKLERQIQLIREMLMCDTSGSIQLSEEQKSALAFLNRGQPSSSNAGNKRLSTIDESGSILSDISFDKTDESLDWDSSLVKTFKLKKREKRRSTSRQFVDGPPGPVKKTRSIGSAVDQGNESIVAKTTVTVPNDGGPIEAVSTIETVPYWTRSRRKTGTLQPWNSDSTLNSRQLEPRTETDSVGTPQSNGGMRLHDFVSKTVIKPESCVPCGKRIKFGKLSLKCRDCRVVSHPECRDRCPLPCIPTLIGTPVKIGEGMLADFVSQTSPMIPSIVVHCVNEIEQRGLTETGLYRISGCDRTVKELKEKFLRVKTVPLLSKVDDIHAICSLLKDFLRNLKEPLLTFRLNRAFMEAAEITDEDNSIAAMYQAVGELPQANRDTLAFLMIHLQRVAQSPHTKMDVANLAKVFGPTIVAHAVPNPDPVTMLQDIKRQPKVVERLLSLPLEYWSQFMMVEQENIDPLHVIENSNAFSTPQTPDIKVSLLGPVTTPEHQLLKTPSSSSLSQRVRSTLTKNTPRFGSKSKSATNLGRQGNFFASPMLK
# assay-remarks: blockers of MgcRacGAP-driven Rac1 GTP hydrolysis – biochemical, ADP Hunter fluorescence, primary and confirmatory, confirmation (AID 624330);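 also: fluorescence reports GDP produced by GAP-driven GTP hydrolysis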
# conditions-used: MgcRacGAP-stimulated Rac1 GTP hydrolysis, at 30 µM, active compounds read high, GST-tagged Rac1 F28L mutant substrate
Screen size: about 340,000 compounds; about 2,100 (0.62%) were called active. Not all results are given here. Potency and affinity values are given separately.
recorded-endpoint: inhibition (%)
Express your answer in %, writing the number without its unit.

- molecule: "O=C(CSc1nnc(-c2cccnc2)o1)Nc1cccc(Cl)c1"
  target-desc: "Rac GTPase-activating protein 1 (Homo sapiens) (UniProt Q9H0H5)"
  inhibition [%]: 4.31
- molecule: "O=C1CSC(c2cn(-c3ccccc3)nc2-c2cc3ccccc3oc2=O)N1Cc1cccnc1 (configuration not stated)"
  target-desc: "Rac GTPase-activating protein 1 (Homo sapiens) (UniProt Q9H0H5)"
  inhibition [%]: -1.18
- molecule: "CCOC(=O)C1CCCN(S(=O)(=O)c2ccc3ccccc3c2)C1 (configuration not stated)"
  target-desc: "Rac GTPase-activating protein 1 (Homo sapiens) (UniProt Q9H0H5)"
  inhibition [%]: 3.67
- molecule: "C=CCn1c(=O)/c(=C/c2ccc(Cl)cc2)s/c1=C(/C#N)c1nnc2n1CCCCC2"
  target-desc: "Rac GTPase-activating protein 1 (Homo sapiens) (UniProt Q9H0H5)"
  inhibition [%]: 3.92
- molecule: "C[C@@H]1[C@H]2CCCC[C@H]2CN(C(=O)OC(C)(C)C)[C@@H]1CC(=O)c1ccccc1"
  target-desc: "Rac GTPase-activating protein 1 (Homo sapiens) (UniProt Q9H0H5)"
  inhibition [%]: 12.5
- molecule: "Clc1ccc(OCCCCN2CCCCC2)cc1"
  target-desc: "Rac GTPase-activating protein 1 (Homo sapiens) (UniProt Q9H0H5)"
  inhibition [%]: 28.9
- molecule: "Cc1cccc(OCC(=O)NNC(=O)C2CCN(c3ncnc4sc(C)c(C)c34)CC2)c1"
  target-desc: "Rac GTPase-activating protein 1 (Homo sapiens) (UniProt Q9H0H5)"
  inhibition [%]: 12.2
- molecule: "C[C@@H]1CN([C@@H](C)CO)C(=O)c2cc(Br)cnc2O[C@H]1CN(C)C(=O)CCN1CCCCC1"
  target-desc: "Rac GTPase-activating protein 1 (Homo sapiens) (UniProt Q9H0H5)"
  inhibition [%]: 14.8
- molecule: "COc1ccc(C(=O)N/C(=C\\c2ccc(-c3cccc([N+](=O)[O-])c3)o2)C(=O)NCCCN2CCOCC2)cc1"
  target-desc: "Rac GTPase-activating protein 1 (Homo sapiens) (UniProt Q9H0H5)"
  inhibition [%]: -23.2
- molecule: "O=C(NCCc1ccccc1)c1ccc(-c2ccccc2Cl)o1"
  target-desc: "Rac GTPase-activating protein 1 (Homo sapiens) (UniProt Q9H0H5)"
  inhibition [%]: 5.22

INPUT: Fill in: inhibition of OC(COc1ccc(Cl)cc1)CN1CCCCC1 (configuration not stated) is ___
OUTPUT: -6.24

INPUT: Item `Cc1ccc2c(CC(=O)NCc3cccs3)coc2c1` has what recorded inhibition?
OUTPUT: 3.76

INPUT: Any idea what its inhibition is? The molecule is COC(=O)c1ccc(C(=O)OC)c(NC(=S)N2CCCCC2C)c1 (configuration not stated)
OUTPUT: 8.35

INPUT: # input molecule: `CCOc1ccc(NC(=O)CN(C)C(=O)Cc2n[nH]c(=O)c3ccccc23)cc1OCC` ; wanted: its inhibition
OUTPUT: 3.38

INPUT: Name the recorded inhibition for `COc1ccc(/C=N/NC(=O)CN(Cc2ccccc2)S(=O)(=O)c2ccc3c(c2)OCCO3)cc1` .
OUTPUT: 7.2
